Reference source: the supplement of paper PMC9112550

# shrunken log2 fold change annotations
System: Escherichia coli TOP10;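 also: peptides expressed intracellularly from a pBAD plasmid library in pooled LB shake-flask culture, induced with 0.3% L-arabinose, DNA abundance read by NGS, three biological replicates, DESeq2 with apeglm shrinkage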
Experiment: shrunken log2 fold change of peptide-encoding DNA abundance (4.5 h post-induction vs induction); higher = less antimicrobial activity (less host growth inhibition)
Details: time post-induction: 4.5 h; library: site-saturation at positions 5, 18, 19, 20
Answer field: number only, no words.

Recorded shrunken log2 fold change, per entry:
RRIRPRPPRLPRPRPRPQAKPRP: 0.277
RRIRMRPPRLPRPRPRPMREPRP: 0.279
RRIRCRPPRLPRPRPRPGSHPRP: -0.0784
RRIRFRPPRLPRPRPRPLVDPRP: 0.0316
RRIRIRPPRLPRPRPRPENNPRP: -0.36
RRIRCRPPRLPRPRPRPNLQPRP: -0.506
RRIRVRPPRLPRPRPRPHWNPRP: -0.343
RRIRMRPPRLPRPRPRPYPAPRP: -0.246
RRIRNRPPRLPRPRPRPEDVPRP: -0.0153
RRIRGRPPRLPRPRPRPWPYPRP: -0.265

Form field: shrunken log2 fold change recorded for "RRIRVRPPRLPRPRPRPILLPRP" with Escherichia coli TOP10 (enter value) -0.815

Next entry: "RRIRERPPRLPRPRPRPMWRPRP" -0.0079

And what about the sequence "RRIRQRPPRLPRPRPRPTMTPRP" ? -0.0845

And then "RRIRKRPPRLPRPRPRPANDPRP" , what is it? 0.0931

Now the sequence "RRIRARPPRLPRPRPRPYMGPRP" 0.0124

What would you report for "RRIRERPPRLPRPRPRPNMIPRP" ? -0.272

Let us now turn to "RRIRLRPPRLPRPRPRPLEFPRP" -0.252

Same question for "RRIRVRPPRLPRPRPRPSAEPRP" please. 0.299

Same thing, different sequence: "RRIRRRPPRLPRPRPRPSHWPRP" 0.183

# iterate: "RRIRHRPPRLPRPRPRPCRPPRP" 0.0355

Try this sequence too: "RRIRQRPPRLPRPRPRPTMLPRP" -0.339

And what about the sequence "RRIRRRPPRLPRPRPRPEIAPRP" ? 0.84

Please answer likewise for "RRIRHRPPRLPRPRPRPDQVPRP" -0.0632

Could you do the same for "RRIRSRPPRLPRPRPRPHGVPRP" , please? 0.013

Try "RRIRYRPPRLPRPRPRPEWAPRP" next. 0.193

Same question, "RRIRKRPPRLPRPRPRPQIHPRP" this time 0.0287

Okay, and "RRIRFRPPRLPRPRPRPWFEPRP" ? -0.0653

Now this one: "RRIRMRPPRLPRPRPRPNEWPRP" 0.23

Then this sequence: "RRIRDRPPRLPRPRPRPMGTPRP" -0.106

Entry to check: "RRIRRRPPRLPRPRPRPFWYPRP" -0.192

Cool, now "RRIRCRPPRLPRPRPRPKHFPRP" -0.209

How about this sequence: "RRIRIRPPRLPRPRPRPENVPRP" 0.267
